Origin of values: PubChem BioAssay (EPA / NIEHS)

assay: ATG_TA_CIS: Attagene CIS-FACTORIAL HepG2 Assay for human TA Basal Promoter (AID 2282964); details: HepG2 Attagene CIS-factorial TA basal promoter reporter; actives raise or lower the signal
Active and inactive are the calls of the source. How the source made its calls: active means hit-call score of the fitted dose curve at least 0.9, where 1 is the maximum; inactive means score below 0.9.
Metric: outcome

Example results:
[[record]]
compound = "CCOC(=O)CC(C)C"
observed_value = "inactive"

[[record]]
compound = "CC(C)(O)C(=O)c1ccc(OCCO)cc1"
observed_value = "inactive"

[[record]]
compound = "CC(C)OB(OC(C)C)OC(C)C"
observed_value = "inactive"

[[record]]
compound = "CC1=CC(C)C(C=O)C(C)C1 (configuration not stated) (tested in a mixture with another compound)"
observed_value = "inactive"

[[record]]
compound = "CC(=O)Oc1c(C)c(C)c2c(c1C)CC[C@@](C)(CCC[C@H](C)CCC[C@H](C)CCCC(C)C)O2"
observed_value = "inactive"


What outcome value was documented for this compound, CC1=CCC(C(C)(C)O)CC1 (configuration not stated) ?
inactive

Another compound: O=C(O)CS
inactive

###

assay: ATG_TGFb_CIS: Attagene CIS-FACTORIAL HepG2 Assay for human Transforming Growth Factor (TGF) (AID 2282967); conditions: HepG2 Attagene CIS TGFb reporter, mRNA transcription; actives raise or lower the signal
Active and inactive are the calls of the source. The calls were made as follows: active = hit-call score of the fitted dose curve at least 0.9, where 1 is the maximum; inactive = score below 0.9.
Respond only with the outcome that fits, drawn from active, inactive

[[record]]
compound = "C=C(C)C(=O)OCCC(C)OC(=O)C(=C)C (stereo not drawn)"
category = "inactive"

[[record]]
compound = "CCCCCCCC1CCCC1=O (stereo not drawn)"
category = "inactive"

[[record]]
compound = "CCOC(=O)CCCCCCCCC(=O)OCC"
category = "inactive"


Look up the recorded call for NCCN1CCNCC1 in this test.
inactive

Another compound: C=C(C)CCCC(C)CCO (stereo not drawn)
inactive

###

Assay: ATG_TGFb_CIS: Attagene CIS-FACTORIAL HepG2 Assay for human Transforming Growth Factor (TGF) (AID 2282967)
Conditions: HepG2 Attagene CIS TGFb reporter, mRNA transcription; actives raise or lower the signal
Method: ATG_CIS is a cell-based, multiplexed-readout assay that uses HepG2, a human liver cell line, with measurements taken at 24 hours after chemical dosing in a 24-well plate.ATG_TGFb_CIS is one of 52 assay component(s) measured or calculated from the ATG_CIS assay. […] This assay endpoint, ATG_TGFb_CIS, was analyzed with bidirectional fitting relative to DMSO as the negative control and baseline of activity. […]
Calls of active or inactive are those of the source. How the source made its calls: active means hit-call score of the fitted dose curve at least 0.9, where 1 is the maximum; inactive means score below 0.9.
Metric: outcome

Example results:
[[record]]
compound = "CCCCCCCCCCCCOC(C)=O"
observed_value = "inactive"

[[record]]
compound = "c1coc(CNc2ncnc3nc[nH]c23)c1"
observed_value = "inactive"

[[record]]
compound = "CCCCCCCCCCO[C@@H]1O[C@H](CO)[C@@H](O)[C@H](O)[C@H]1O"
observed_value = "inactive"

[[record]]
compound = "CCCCCCC(C)O (stereo not given)"
observed_value = "inactive"

[[record]]
compound = "CCC(C)C1CCCCC1=O (stereo not given)"
observed_value = "inactive"


What outcome value was documented for this compound, Cc1cccc(C)c1 ?
inactive

Another compound: CCCCCCOC(C)=O
inactive

Another compound: O=C(O)c1ccc(C(=O)O)c(C(=O)O)c1
inactive

Another compound: Nc1ccc(O)c(N)c1
inactive

Another compound: CCC(CC)CO
inactive

Another compound: CCCCOCCOCCOCCO
inactive

Another compound: CCCCCCCC(=O)N(C)C
inactive

Another compound: c1ccc(Cc2ccccc2)cc1
inactive

Another compound: Cc1cc(O)c(C)c(C)c1O
inactive

Another compound: CCCCCC1C(=O)CCC1CC(=O)OC (stereo not given)
inactive
